Origin of values: paper PMC10969810

assayRemarks: Solubility determination (UV spectroscopy of saturated solutions)
Assay type: physicochemical
experimentalConditions: PPG400/water 80:20 (v/v), aqueous with cosolvent or surfactant or cyclodextrin, thermodynamic from solid; PPG400/water 80:20, 25 °C; not the maximum solubility; read-out: solubility in PPG/water system matching the PPG phase
Procedure: Quantification was carried out using calibration curves (R^2 > 0.99 in all cases) for each analyzed compound within the concentration range of 2.5 to 50 mg L^-1.
observationType: solubility at 12 h

solubility at 12 h reading for Oc1ccc(/C=C/c2cc(O)cc(O)c2)cc1 [RSV, trans-resveratrol] : ≥ 100 mg/mL

---

assayRemarks: Solubility determination (UV spectroscopy of saturated solutions)
Type: physicochemical
experimentalConditions: [Ch][DHP]/water 50:50, aqueous with cosolvent or surfactant or cyclodextrin, thermodynamic from solid; around 50 wt% [Ch][DHP] in water, 25 °C; read-out: maximal solubility in the [Ch][DHP]-rich phase
observationType: solubility at 12 h (mg/mL)
Give bare numbers, in mg/mL.

get_value(item= "O=C(O)c1cc(O)c(O)c(O)c1" , readout=solubility at 12 h) returns 140
